Listing of pKi toward Carbonic anhydrase 9 (Homo sapiens, UniProt Q16790), each taken from a published source.
pKi: −log10 of the molar value.

compound | comparator | pKi
NS(=O)(=O)c1ccc(-c2ccc(-c3ccc(Br)cc3)cc2)cc1 | = | 6.65
CCCOc1ccc2c(c1)CCNC2c1ccc(S(N)(=O)=O)cc1 (racemic) | = | 8.04
Cc1c(CC(=O)O)c(=O)oc2cc3occ(-c4ccccc4)c3cc12 | = | 7.76
Cc1c(-c2n[nH]c(=S)[nH]2)nnn1-c1ccc(S(N)(=O)=O)cc1 | = | 5.91
Nc1nc(-c2ccc(NCc3ccc(S(N)(=O)=O)cc3)cc2)cn2c(=O)n(-c3ccccc3)nc12 | = | 5.22
COc1ccc(CNc2ccc(S(N)(=O)=O)cc2)cc1 | = | 6.05
O=C1Nc2ccc(F)cc2S(=O)(=O)N1 | = | 7.72
NS(=O)(=O)c1ccc(NC(=O)Nc2nc(Cl)nc(Nc3ccc(Cl)cc3)n2)cc1 | = | 7.36
O=C1c2ccccc2S(=O)(=O)N1Cc1ccc(Br)cc1 | = | 7.66
NS(=O)(=O)c1ccc(/N=C(S)/N=C2/C=CC(=C3c4ccc(O)cc4Oc4cc(O)ccc43)C(C(=O)O)=C2)c(Cl)c1 | = | 7.49
O=C1c2ccccc2S(=O)(=O)N1Cc1cccc(F)c1 | = | 6.42
CCCNCC(O)COc1ccc(C(=O)NCCc2ccc(S(N)(=O)=O)cc2)cc1 (configuration not stated) | = | 8.13
COc1ccccc1CCNS(N)(=O)=O | = | 7.39
O=C(O)c1ccc(N2C(=O)CCC2=O)cc1 | = | 6.30
N#Cc1ccccc1NC(=O)Nc1ccc(S(N)(=O)=O)cc1 | = | 9.52
CCOC(=O)c1nn(-c2ccc(S(N)(=O)=O)cc2)c2nc3nc(-c4ccc(Cl)cc4)cc(-c4ccccc4)c3c(=O)n12 | = | 5.49
NS(=O)(=O)c1ccc(NC(=O)Cn2ccc(=O)[nH]c2=O)cc1 | = | 7.59
COc1cc(C[C@@H]2C[C@H]2C(=O)O)c(Br)c(Br)c1OC | < | 4.30
O=c1[nH]c2cc(Cl)ccc2c(=O)n1O | = | 7.16
CC1=NN(c2nc(N)nc(Cn3ccc(=O)c(S(N)(=O)=O)c3)n2)CC1 | = | 7.11
NS(=O)(=O)c1ccc(O)c(NC(=O)Cn2ccc(=O)[nH]c2=O)c1 | = | 6.36
O=C1c2ccccc2S(=O)(=O)N1Cc1c(F)cccc1F | < | 4.30
COc1ccc(C(=O)CSc2nc(Nc3cccc(S(N)(=O)=O)c3)c(C#N)c(-c3cc(OC)ccc3OC)n2)cc1 | = | 8.15
NS(=O)(=O)c1cccc(NC(=O)Nc2ccccc2F)c1 | = | 5.83
CC1(C)CC(=O)C2=C(C1)N(c1ccc(S(N)(=O)=O)cc1)C1=C(C(=O)CC(C)(C)C1)C2c1ccc(NS(=O)(=O)c2ccccc2)cc1 | = | 6.24
COC(=O)c1cc(-c2cn(Cc3ccccc3)c3ccccc23)[nH]n1 | = | 5.03
CC(C)(C)Nc1nc(Nc2ccc(S(N)(=O)=O)cc2)nc(NC(C)(C)C)n1 | = | 7.71
O=c1ccc2ccc(OCc3cn(-c4cccc(F)c4)nn3)cc2o1 | = | 7.60
NS(=O)(=O)[C@@H]1O[C@H](COP(=O)(O)O)[C@@H](O)[C@H](O)[C@H]1O | = | 6.67
Cc1cc(-c2cccnc2)nn(-c2ccc(S(N)(=O)=O)cc2)c1=O | = | 8.64
NS(=O)(=O)c1ccc(CNC(=O)NC2CC2c2ccccc2)cc1 (configuration not stated) | = | 5.74
CC(C)NCC(O)COc1ccc(C(=O)NCCc2ccc(S(N)(=O)=O)cc2)cc1 (configuration not stated) | = | 7.21
COc1ccc(OCc2cn(-c3ccc(S(N)(=O)=O)cc3)nn2)cc1 | = | 7.84
COc1c2c(c3ccc(=O)oc3c1/C=C/C(C)(C)O)OC(C)(C)C=C2 | = | 6.11
Nc1cccc(-c2ccc(S(N)(=O)=O)cc2)c1 | = | 6.90
NS(=O)(=O)c1ccc(C(=O)N2CCN(C(c3ccccc3)c3ccccc3)CC2)cc1 | = | 7.55
NS(=O)(=O)c1ccc(NC(=O)Nc2ccc(F)cc2F)cc1 | = | 8.43
NS(=O)(=O)c1cc(C(=O)N2CCCC2)c(Cl)cc1S | = | 7.84
CCOC1Oc2ccccc2C(=O)/C1=C/Nc1ccc(S(=O)(=O)Nc2cc(C)on2)cc1 (configuration not stated) | = | 7.62
CC(C)CN(CC(C)C)C(=O)Nc1cccc(S(N)(=O)=O)c1 | = | 5.75
NS(=O)(=O)c1ccc(NCC/C(=N\O)c2ccccc2)cc1 | = | 7.27
O=S1(=O)C=Cc2cc(-n3cc(CO)nn3)ccc2O1 | = | 7.24
